Consider the following AC50 values measured on Melanocortin receptor 4 (Homo sapiens, UniProt P32245).
Sequence (P32245 whole entry): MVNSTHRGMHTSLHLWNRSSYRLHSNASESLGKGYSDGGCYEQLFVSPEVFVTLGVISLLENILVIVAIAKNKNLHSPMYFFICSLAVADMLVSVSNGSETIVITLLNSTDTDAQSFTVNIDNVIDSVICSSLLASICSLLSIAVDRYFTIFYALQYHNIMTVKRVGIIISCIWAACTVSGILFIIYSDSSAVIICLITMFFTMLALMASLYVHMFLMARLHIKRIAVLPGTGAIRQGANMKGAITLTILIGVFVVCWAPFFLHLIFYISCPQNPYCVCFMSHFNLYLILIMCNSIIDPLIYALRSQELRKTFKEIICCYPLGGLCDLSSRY

Example compounds with recorded AC50:
# COMPOUND, AC50
data = [
    ("CCCN(CCC)C(=O)C(CCC(=O)O)NC(=O)c1ccccc1 (stereo unspecified) [PROGLUMIDE]", "> 30 µM"),
    ("CN(C)CCC(c1ccc(Cl)cc1)c1ccccn1 (stereo unspecified)", "> 30 µM"),
    ("Cc1cn([C@H]2C=C[C@@H](CO)O2)c(=O)[nH]c1=O", "> 30 µM"),
    ("COC(=O)[C@H]1[C@H]2C[C@@H]3c4[nH]c5cc(OC)ccc5c4CCN3C[C@H]2C[C@@H](OC(=O)/C=C/c2cc(OC)c(OC)c(OC)c2)[C@@H]1OC", "> 10 µM"),
    ("CC(C[N+](C)(C)C)OC(N)=O (stereo unspecified)", "> 10 µM"),
]

Q: API: value(readout=AC50, system=Melanocortin receptor 4 (Homo sapiens, UniProt P32245)) for record COc1cccc(C2(O)CCCCC2CN(C)C)c1 (stereo unspecified); note: assay procedure not described here
Result: > 30 µM

Q: API: value(readout=AC50, system=Melanocortin receptor 4 (Homo sapiens, UniProt P32245)) for record CN1CCN(CC/C=C2/c3ccccc3Sc3ccc(S(=O)(=O)N(C)C)cc32)CC1; note: assay procedure not described here
Result: > 30 µM

Q: API: value(readout=AC50, system=Melanocortin receptor 4 (Homo sapiens, UniProt P32245)) for record CCc1c(Cl)c(O)c(Cl)c(O)c1C(=O)O[C@H]1[C@H](O)[C@H](OC)[C@H](OC/C2=C\C=C\C[C@H](O)/C(C)=C/[C@H](CC)[C@@H](O[C@@H]3OC(C)(C)[C@@H](OC(=O)C(C)C)[C@H](O)[C@@H]3O)/C(C)=C/C(C)=C/C[C@@H]([C@@H](C)O)OC2=O)O[C@@H]1C; note: assay procedure not described here
Result: > 30 µM

Q: API: value(readout=AC50, system=Melanocortin receptor 4 (Homo sapiens, UniProt P32245)) for record Cc1c(C(=O)NN2CCCCC2)nn(-c2ccc(Cl)cc2Cl)c1-c1ccc(Cl)cc1; note: assay procedure not described here
Result: 28.2 µM

Values from ChEMBL document CHEMBL5291721
